Please respond with reported TGI for every item in the list.
Test system: MCF7 breast
Method Notes: NCI tumour cell line growth inhibition, 48 h

Here are 5 molecules together with their reported answers.
>>> print(df.to_string())
                                   molecule  observable  readout_value
0                 c1ccc2c(c1)[I+]c1ccccc1-2         TGI        > 50 µM
1  CC1=CSC2=NC(c3ccc(Cl)c(Cl)c3)=CC(c3ccc(Cl)cc3)N12 (stereo unspecified)         TGI       > 100 µM
2  NC(=O)CC(Nc1ncc2c(n1)-c1ccccc1OC2)C(=O)O (stereo unspecified)         TGI       > 100 µM
3  CC1(C)C2CC(c3ccncc3)ON2C(C)(C)N1O (stereo unspecified)         TGI       > 100 µM
4            O=C(O)c1ccccc1/C=N\NC1=NCCCCN1         TGI       > 100 µM

Please go through the list and note TGI for each molecule.
1. O=C(NCCNCCO)N/N=C/c1ccc(Cl)cc1
2. CC(=O)Oc1cc(C)ccc1[C@]1(C)CC[C@H](C)/C1=C\Br
3. CC(C)(C)N1Cc2ccccc2/C(=C/Sc2ccccc2)C1=O
4. COc1ccc(/C=C/c2cc(OC)c(OC)c(OC)c2)cc1NC(=O)/C=C/c1ccc(F)cc1
5. N#CC1=CNc2sccc2S1(=O)=O
6. COc1ccc(-c2c(C#N)c(-c3ccccc3)n(NS(=O)(=O)c3ccccc3)c(=O)c2C#N)cc1

Outgoing:
1. > 100 µM
2. 15.3 µM
3. 24.3 µM
4. > 100 µM
5. > 100 µM
6. > 100 µM

* * *

Test system: SR leukemia
Method Notes: NCI tumour cell line growth inhibition, 48 h
So I've got a bunch of compounds here, and I need their TGI values.
One number for each entry, in µM.

Recorded results for 4 compounds are shown here.
Compound	TGI / µM
CCN(CC)CCCNc1ccc2nnn3c4ccc(O)cc4c(=O)c1c23	21.8
CCCCNc1nc(NC(C)(C)C)nc(NC(C)(C)C)n1	12.9
S=C(Nc1ccc(-c2nc3ccccc3[nH]2)cc1)NC1CCCCC1	52.5
COC(=O)C(COC(=O)/C=C/c1ccc(OC(C)=O)c(OC(C)=O)c1)OC(=O)/C=C/c1ccc(OC(C)=O)c(OC(C)=O)c1 (stereo not given)	11.1

Value of TGI reported for the compound CC(C)(C)OC(=O)N1C(OP(=O)(Oc2ccccc2)Oc2ccccc2)=COc2cccnc21 is 82.9

* * *

System: MDA-MB-435
Method Notes: NCI tumour cell line growth inhibition, 48 h
Observable: log10 TGI (log10 of the value in µM)
On a log10 scale: recorded TGI, unit µM.

Here are 3 compounds together with their reported answers.
>>> df
                                   compound  observable  readout_value
0  O=C1c2ccccc2CC12Cc1ccc3c(c1C2)CCC3 (centres undefined)   log10 TGI           1.53
1  COc1cc(OC2OC(C)C(O)C(O)C2O)cc2oc(-c3ccc(O)cc3)c(CC=C(C)C)c(=O)c12 (centres undefined)   log10 TGI           1.78
2  COc1cc(C2C3=C(COC3=O)OC(C)(C)Oc3cc4c(cc32)OCO4)cc(OC)c1OC (centres undefined)   log10 TGI          -0.30

The following compounds each have a reported value; give each one's log10 TGI.
1. COc1ccc(NC2Oc3cc4c(cc3C(c3cc(OC)c(O)c(OC)c3)C2C)OCO4)cc1 (centres undefined)
2. CSCCC(NC(=O)OC(C)(C)C)C(=O)NCCNc1ccc(NCCNC(=O)C(CCSC)NC(=O)OC(C)(C)C)c2c1C(=O)c1ccccc1C2=O (centres undefined)
3. O=c1oc2ccccc2c(O)c1/C=N\c1nc(-c2ccccc2)cs1
4. Clc1nc(Oc2ccccc2)nc(-c2cn(-c3ccccc3)c3ccccc23)n1

Outgoing:
[0.40, 0.87, 1.31, 1.36]
